meta.source: ChEMBL document CHEMBL3137386

Protocol Description: DNDI: Protein binding in rat plasma
Format: ADME, 10116
Recorded Conditions: read-out: % bound (converted)
Measure Name: fraction unbound
Lab note: jot down the number only; don't add units.

Could you tell me which fraction unbound is on file for O=C(C(c1ccc(Cl)cc1)c1cccnc1)N1CCN(c2ccc(C(F)(F)F)cc2)CC1 (stereo unspecified) ?
0.027

* * *

Protocol Description: DNDI: Solubility, 24 hour, SGF - pH 1, 37C
Type: physicochemical
Recorded Conditions: read-out: Equilibrium
Measure Name: solubility thermodynamic at 24 h (µg/mL)
The figure you give is taken to be in µg/mL; do not add the unit.

Which solubility thermodynamic at 24 h reading was recorded for the molecule O=C(C(c1ccc(Cl)cc1)c1cccnc1)N1CCN(c2ccc(C(F)(F)F)cc2)CC1 (stereo unspecified) ?
1500

* * *

Protocol Description: DNDI: Lipophilicity (s.f. LogD) at pH 7.4
Format: physicochemical
Recorded Conditions: buffer
Measure Name: logD
I'd appreciate a reply containing only the number, no unit.

Name the recorded logD for O=C(C(c1ccc(Cl)cc1)c1cccnc1)N1CCN(c2ccc(C(F)(F)F)cc2)CC1 (stereo unspecified) .
5.54

* * *

Protocol Description: DNDI: Metabolism
Assay type: ADME, 10116, Microsome
Recorded Conditions: rat, microsomes; read-out: EH
Measure Name: hepatic extraction ratio
# output: bare number, no unit

Consider the compound O=C(C(c1ccc(Cl)cc1)c1cccnc1)N1CCN(c2ccc(C(F)(F)F)cc2)CC1 (stereo unspecified) and give its measured hepatic extraction ratio.
0.55

* * *

Protocol Description: DNDI: Lipophilicity (gLogD) at pH 3
Format: physicochemical
Recorded Conditions: buffer
Values of chromatographic logD greater than or equal to 3 map to 1; values below map to -1.

Below, 5 compounds whose answers are already recorded.
{"Compound": "O=C(C(c1ccc(Cl)cc1)c1cncnc1)N1CCN(c2ccc(C(F)(F)F)cn2)CC1 (configuration not stated)", "Answer Label": 1}
{"Compound": "CS(=O)(=O)c1ccc(N2CCN(C(=O)C(c3ccc(Cl)cc3)c3cccnc3)CC2)cc1 (configuration not stated)", "Answer Label": -1}
{"Compound": "N#Cc1ccc(C(C(=O)N2CCN(c3ccc(C(F)(F)F)cn3)CC2)c2cccnc2)cc1 (configuration not stated)", "Answer Label": 1}
{"Compound": "N#Cc1ccc(C(C(=O)N2CCN(c3ccc(C(F)(F)F)cc3)CC2)c2cccnc2)cc1 (configuration not stated)", "Answer Label": 1}
{"Compound": "CS(=O)(=O)c1ccc(N2CCN(C(=O)C(c3ccc(C#N)cc3)c3cccnc3)CC2)cc1 (configuration not stated)", "Answer Label": -1}

Could you verify whether the entry O=C(C(c1ccc(Cl)cc1)c1cccnc1)N1CCN(c2ccc(C(F)(F)F)cc2)CC1 (configuration not stated) shows chromatographic logD of no less than 3?
1

Entry N#Cc1ccc(C(C(=O)N2CCN(c3ccc(C(F)(F)F)nc3)CC2)c2cccnc2)cc1 (configuration not stated) please
-1

* * *

Protocol Description: DNDI: Metabolism
Type: ADME, Microsome
Recorded Conditions: human, microsomes; read-out: EH
In this section, each of the compounds is paired with its reported hepatic extraction ratio.

Consider the worked cases shown below.
{"Compound": "O=C(C(c1ccc(Cl)cc1)c1cccnc1)N1CCN(c2ccc(C(F)(F)F)nc2)CC1 (centres undefined)", "hepatic extraction ratio": 0.67}
{"Compound": "CS(=O)(=O)c1ccc(N2CCN(C(=O)C(c3ccc(Cl)cc3)c3cncnc3)CC2)cc1 (centres undefined)", "hepatic extraction ratio": 0.79}
{"Compound": "N#Cc1ccc(C(C(=O)N2CCN(c3ccc(C(F)(F)F)cn3)CC2)c2cccnc2)cc1 (centres undefined)", "hepatic extraction ratio": 0.62}
{"Compound": "CS(=O)(=O)c1ccc(N2CCN(C(=O)C(c3ccc(Cl)cc3)c3cccnc3)CC2)cc1 (centres undefined)", "hepatic extraction ratio": 0.82}

// lookup hepatic extraction ratio for N#Cc1ccc(C(C(=O)N2CCN(c3ccc(C(F)(F)F)nc3)CC2)c2cccnc2)cc1 (centres undefined)
0.4
